Each recorded value in this set is attributed to patent US20250339569A1.

Biological target: human carbonic anhydrase 9 (CAIX) (human, UniProt Q16790 38-459)
Experiment: FACS competition on HT-29 cells, competitor tracer 3BP-2776; category A = pIC50 >8.0
Starred links: 1 amine or outer side, 2 acyl side, 3 side chain; linkers in the order of their positions; H or OH if unused. Positions of bridges follow the written chain, without caps; N, C: chain ends. Non-standard residues stand in square brackets, D forms with d. *: point of attachment. DOTA = O=C(O)CN1CCN(CC(=O)O)CCN(CC(=O)*)CCN(CC(=O)O)CC1; mXylylene = c1cc(C[*:1])cc(C[*:2])c1; Dap = NC[C@H](N)C(=O)O
Assay endpoint: pIC50

# pIC50 (binder: {DOTA}-SDCE[dP]DWLTW[Dap]C-NH2 (lactam 11-2; linker 3-12 via mXylylene; SMILES CC(C)C[C@@H]1NC(=O)[C@H](Cc2c[nH]c3ccccc23)NC(=O)[C@H](CC(=O)O)NC(=O)[C@H]2CCCN2C(=O)[C@H](CCC(=O)O)NC(=O)[C@@H]2CSCc3cccc(c3)CSC[C@@H](C(N)=O)NC(=O)[C@H](CNC(=O)C[C@H](NC(=O)[C@H](CO)NC(=O)CN3CCN(CC(=O)O)CCN(CC(=O)O)CCN(CC(=O)O)CC3)C(=O)N2)NC(=O)[C@H](Cc2c[nH]c3ccccc23)NC(=O)[C@H]([C@@H](C)O)NC1=O) [3BP-4257] ) is > 8 pic50
